Test system: E. coli R-563
Test: In vitro antibacterial activity (MIC)
Type: cell-based
Details: Escherichia coli, R563, E. coli R-563; read-out: MIC
Structures can show the parent of a compound that is named as a salt.
readout: MIC (µg/mL)
Write down the numeric answer in µg/mL and omit the unit.

Example entries and their recorded answers appear below.
compound	MIC / µg/mL
CC1(C)S[C@@H]2[C@H](N=CN3CCC(Cn4ccnc4N)CC3)C(=O)N2[C@H]1C(=O)O [H, hydrochloride]	0.062
CC1(C)S[C@@H]2[C@H](N=CN3CCC(CCCn4ccnc4N)CC3)C(=O)N2[C@H]1C(=O)O [I, hydrochloride]	0.062
CC1(C)S[C@@H]2[C@H](N=CN3CCC(CCCn4ccnc4[N+](=O)[O-])CC3)C(=O)N2[C@H]1C(=O)O [K, hydrate]	0.5
CC1(C)S[C@@H]2[C@H](N=CN3CCC(CC4=NCCN4)CC3)C(=O)N2[C@H]1C(=O)O [M, hydrochloride]	0.062
CC1(C)S[C@@H]2[C@H](N=CN3CCC(CCC4=NCCN4)CC3)C(=O)N2[C@H]1C(=O)O [N, hydrochloride]	0.031

(Q) # input compound: CC1(C)S[C@@H]2[C@H](N=CN3CCC(CCn4ccnc4)CC3)C(=O)N2[C@H]1C(=O)O [B, hydrate hydrochloride] ; wanted: its MIC
(A) 8

(Q) # input compound: CC1(C)S[C@@H]2[C@H](N=CN3CCC(C4=NCCN4)CC3)C(=O)N2[C@H]1C(=O)O [L, hydrochloride] ; wanted: its MIC
(A) 0.25

---

Measured log10 of MIC of individual entries
Test system: P. mirabilis 2
Assay: In vitro antibacterial activity (MIC)
Format: cell-based
Details: Proteus mirabilis, 2, P. mirabilis 2; read-out: MIC
Where a name gives a salt, the structure may show the parent alone.
// do not treat as linear: log10 of MIC, unit µg/mL

Example entries and their recorded answers appear below.
compound	experimentalSystem	readout	quantitativeReadout
CC1(C)S[C@@H]2[C@H](N=CN3CCC(C4=NCCN4)CC3)C(=O)N2[C@H]1C(=O)O [L, hydrochloride]	P. mirabilis 2	log10 of MIC	0.00
CC1(C)S[C@@H]2[C@H](N=CN3CCC(CCCn4ccnc4CO)CC3)C(=O)N2[C@H]1C(=O)O [R, hydrate]	P. mirabilis 2	log10 of MIC	-0.60
Cc1nc(C)n(CCCC2CCN(C=N[C@@H]3C(=O)N4[C@@H]3SC(C)(C)[C@@H]4C(=O)O)CC2)c1C [E, hydrate hydrochloride]	P. mirabilis 2	log10 of MIC	-0.30

(Q) # input compound: CC1(C)S[C@@H]2[C@H](N=CN3CCCC(c4ncc[nH]4)C3)C(=O)N2[C@H]1C(=O)O (stereo partly drawn) [P, hydrochloride] ; wanted: its log10 of MIC
(A) 0.90

(Q) # input compound: CC1(C)S[C@@H]2[C@H](N=CN3CCC(c4ncc[nH]4)CC3)C(=O)N2[C@H]1C(=O)O [O, hydrochloride trihydrate] ; wanted: its log10 of MIC
(A) 0.00

(Q) # input compound: CC1(C)S[C@@H]2[C@H](N=CN3CCC(CCCn4ccnc4)CC3)C(=O)N2[C@H]1C(=O)O [C, hydrochloride monohydrate] ; wanted: its log10 of MIC
(A) 1.20

---

System: S. faecalis C1
Assay: In vitro antibacterial activity (MIC)
Format: cell-based
Conditions: Enterococcus faecalis; S. faecalis C1; read-out: MIC
Counter-ions that a name gives are not always drawn.
Measured MIC of individual entries
Write down the numeric answer in µg/mL and omit the unit.

Example entries and their recorded answers appear below.
compound	quantitativeReadout
CC1(C)S[C@@H]2[C@H](N=CN3CCC(C4=NCCN4)CC3)C(=O)N2[C@H]1C(=O)O [L, hydrochloride]	32
CC1(C)S[C@@H]2[C@H](N=CN3CCC(Cn4ccnc4N)CC3)C(=O)N2[C@H]1C(=O)O [H, hydrochloride]	64

Okay, next one:
(Q) # input compound: Cc1nccn1CCCC1CCN(C=N[C@@H]2C(=O)N3[C@@H]2SC(C)(C)[C@@H]3C(=O)O)CC1 [F, hydrate] ; wanted: its MIC
(A) 128
